I'd be grateful if you could share measured relative viability for these entries.
system: ChaGo-K-1; experiment: relative viability (nuclei count vs DMSO), 5 days (fraction); higher = more cells survive; settings: first compound 500 µM
Answers are plain numbers.

Q: Provide relative viability, tested on ChaGo-K-1, for O=C(O)CCCCC(CCSCc1ccccc1)SCc1ccccc1 (centres undefined) [CPI-613] + CC(=O)c1c(C)c2cnc(Nc3ccc(N4CCNCC4)cn3)nc2n(C2CCCC2)c1=O [Palbociclib] (partner 0.5 µM) .
Result: 0.419

Q: Give relative viability for this entry on ChaGo-K-1: O=C(O)CCCCC(CCSCc1ccccc1)SCc1ccccc1 (centres undefined) [CPI-613] + CC(C)C[C@H](NC(=O)[C@H](Cc1ccccc1)NC(=O)c1cnccn1)B(O)O [Bortezomib] (partner 0.002 µM)
Result: 0.554

Below is a list of compounds. For each, state its recorded relative viability.
1. O=C(O)CCCCC(CCSCc1ccccc1)SCc1ccccc1 (centres undefined) [CPI-613] + CS(=O)(=O)N1CCN(Cc2cc3nc(-c4cccc5[nH]ncc45)nc(N4CCOCC4)c3s2)CC1 [Pictilisib] (partner 1 µM)
2. O=C(O)CCCCC(CCSCc1ccccc1)SCc1ccccc1 (centres undefined) [CPI-613] + COc1cc2c(Oc3ccc(NC(=O)C4(C(=O)Nc5ccc(F)cc5)CC4)cc3F)ccnc2cc1OCCCN1CCOCC1 [Foretinib] (partner 0.25 µM)

Result:
1: 0.33; 2: 0.105
